The origin of these recorded values is patent US20240391954A1.

We begin with a simple list: items and their reported cAMP EC50.
molecular target: human MC3R (human, UniProt P41968 1-323); assay: cell-based or functional assay
Sequence (P41968 whole entry): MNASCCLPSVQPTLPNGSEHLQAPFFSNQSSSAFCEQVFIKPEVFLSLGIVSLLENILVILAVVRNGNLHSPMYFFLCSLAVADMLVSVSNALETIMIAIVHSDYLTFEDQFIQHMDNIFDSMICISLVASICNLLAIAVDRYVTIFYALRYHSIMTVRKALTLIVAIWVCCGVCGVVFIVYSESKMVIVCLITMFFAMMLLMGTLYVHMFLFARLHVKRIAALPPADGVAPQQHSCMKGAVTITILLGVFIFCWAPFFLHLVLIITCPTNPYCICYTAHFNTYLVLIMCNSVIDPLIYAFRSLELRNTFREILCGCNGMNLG
Positions of bridges follow the written chain, without caps; N, C: chain ends. Non-standard residues stand in square brackets, D forms with d. 3Pal = N[C@@H](Cc1cccnc1)C(=O)O; Cit = NC(=O)NCCC[C@H](N)C(=O)O; Nle = CCCC[C@H](N)C(=O)O; Aib = CC(C)(N)C(=O)O
Expressed in nM, but write only the number.

binder	unit-of-measure	cAMP EC50
Ac-R[Nle]C[Cit][dF]RFC-NH2 (disulfide 3-8; SMILES CCCC[C@H](NC(=O)[C@H](CCCNC(=N)N)NC(C)=O)C(=O)N[C@H]1CSSC[C@@H](C(N)=O)NC(=O)[C@H](Cc2ccccc2)NC(=O)[C@H](CCCNC(=N)N)NC(=O)[C@@H](Cc2ccccc2)NC(=O)[C@H](CCCNC(N)=O)NC1=O) [CTX-1626]	nM	678
Ac-C[Aib]H[dF]RFC-NH2 (disulfide 1-7; SMILES CC(=O)N[C@H]1CSSC[C@@H](C(N)=O)NC(=O)[C@H](Cc2ccccc2)NC(=O)[C@H](CCCNC(=N)N)NC(=O)[C@@H](Cc2ccccc2)NC(=O)[C@H](Cc2c[nH]cn2)NC(=O)C(C)(C)NC1=O) [CTX-1634]	nM	56

Now, please, on to the next binder.
Field request: cAMP EC50 | item: Ac-R[Nle]C[3Pal][dF]RWC-NH2 (disulfide 3-8; SMILES CCCC[C@H](NC(=O)[C@H](CCCNC(=N)N)NC(C)=O)C(=O)N[C@H]1CSSC[C@@H](C(N)=O)NC(=O)[C@H](Cc2c[nH]c3ccccc23)NC(=O)[C@H](CCCNC(=N)N)NC(=O)[C@@H](Cc2ccccc2)NC(=O)[C@H](Cc2cccnc2)NC1=O) [CTX-1620]
58
